# testedOn: T1, Anti-PSMA Fab (SEQ ID NOs: 19, 20)
# T1 construct: Biotinylated and captured on neutravidin coated plates in the phage ELISA; also called 006 PSMA Fab
# assayProtocol: phage binding ELISA; Fab-coated wells pre-incubated with PSMA antigen as competitor, anti-M13-HRP detection;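 further: clonal phage supernatants screened, with reference wells given blocking buffer only (no PSMA antigen) before phage were added for a brief incubation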
Where no end group is shown, it is not given here.
property: Anti-PSMA Fab signal in the presence of PSMA
One number for each entry.

Some solved cases for reference:
- binder: "LDKLCIPSWMCWSH (tested as crude clonal phage supernatant) [Phage-2181]"
  numericReadout: 0.0713
- binder: "EFKWCIPAWMCTAA (tested as crude clonal phage supernatant) [Phage-2186]"
  numericReadout: 0.0998
- binder: "EPKLCRPAWMCVGM (tested as crude clonal phage supernatant) [Phage-2179]"
  numericReadout: 0.0704
- binder: "LIKWCTPPWMCEQL (tested as crude clonal phage supernatant) [Phage-2180]"
  numericReadout: 0.0655
- binder: "WSKSCTPAWMCEGF (tested as crude clonal phage supernatant) [Phage-2185]"
  numericReadout: 0.0843

Would you be so kind as to report Anti-PSMA Fab signal in the presence of PSMA for each listed record?
1. EHHWCIPKWMCNEV (tested as crude clonal phage supernatant) [Phage-2190]
2. WYKWCTPAWMCEFT (tested as crude clonal phage supernatant) [Phage-2189]
3. ITKWCTPAWMCAHL (cysteine pairing not given here; also: displayed on bacteriophage as fusion to pIII, tested as crude clonal phage supernatant) [Phage-2178]
4. VHMRCIPEWMCQVF (tested as crude clonal phage supernatant) [Phage-2183]
5. HEKLCIPWWMCEDH (tested as crude clonal phage supernatant) [Phage-2182]
6. VDNWCVPRWMCDGF (tested as crude clonal phage supernatant) [Phage-2191]
7. EIKWCTPAWMCEGF (tested as crude clonal phage supernatant) [Phage-2187]

Result block:
1. 0.0711
2. 0.145
3. 0.0904
4. 0.071
5. 0.0868
6. 0.0922
7. 0.0762

Please supply Anti-PSMA Fab signal in the presence of PSMA for each of the following items, keeping them in order.
1. TEKWCIPEWMCAHQ (cysteine pairing not given here; also: displayed on bacteriophage as fusion to pIII, tested as crude clonal phage supernatant) [Phage-2184]
2. LSHWCSPQWMCSGF (tested as crude clonal phage supernatant) [Phage-2188]
3. SLHLCIPQWMCGIS (cysteine pairing not given here; also: displayed on bacteriophage as fusion to pIII, tested as crude clonal phage supernatant) [Phage-2177]

Result block:
1: 0.0839; 2: 0.0932; 3: 0.0806
